# test_target: T1, His-tagged, full-length PCSK9 (human, UniProt Q8NBP7 31-692)
# T1 construct: secreted PCSK9 is autocatalytically cleaved into prodomain and catalytic domain + CRD (from S153), which stay associated; also called His-PCSK9; proprotein convertase subtilisin/kexin type 9; not shown: His tag
# T1 sequence (Q8NBP7 31-692 limits assumed): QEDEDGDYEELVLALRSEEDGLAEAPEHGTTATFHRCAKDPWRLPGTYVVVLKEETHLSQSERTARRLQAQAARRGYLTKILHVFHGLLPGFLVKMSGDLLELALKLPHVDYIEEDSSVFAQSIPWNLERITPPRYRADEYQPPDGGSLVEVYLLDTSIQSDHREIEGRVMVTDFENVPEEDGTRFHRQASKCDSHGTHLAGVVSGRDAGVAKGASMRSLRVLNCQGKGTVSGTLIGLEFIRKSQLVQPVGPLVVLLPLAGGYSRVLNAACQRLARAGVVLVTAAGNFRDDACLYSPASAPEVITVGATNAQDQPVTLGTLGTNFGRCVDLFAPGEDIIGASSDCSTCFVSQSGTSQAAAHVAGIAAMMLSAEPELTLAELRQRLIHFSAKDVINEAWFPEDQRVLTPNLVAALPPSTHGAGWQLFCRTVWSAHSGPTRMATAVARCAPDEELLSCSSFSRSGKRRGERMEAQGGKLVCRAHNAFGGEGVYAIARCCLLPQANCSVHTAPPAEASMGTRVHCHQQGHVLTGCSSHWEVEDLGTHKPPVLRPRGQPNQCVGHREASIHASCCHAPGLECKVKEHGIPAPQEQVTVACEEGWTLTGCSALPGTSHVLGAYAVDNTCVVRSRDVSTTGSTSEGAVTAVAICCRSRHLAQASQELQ
# procedure_details: TR-FRET competition (PCSK9/EGF(A) assay); competitor EGF(A)-Fc;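 further: proximity signal from anti-His APC on PCSK9 paired with anti-Fc europium on the Fc ligand, read as normalized TR-FRET ratio across compound dilutions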
Bridge positions count the residues as written; N and C are the ends.
measure_name: IC50

IC50 lookup needed for Ac-CALPWNLQRIGLPC-NH2 (disulfide 1-14; SMILES CC[C@H](C)[C@@H]1NC(=O)[C@H](CCCNC(=N)N)NC(=O)[C@H](CCC(N)=O)NC(=O)[C@H](CC(C)C)NC(=O)[C@H](CC(N)=O)NC(=O)[C@H](Cc2c[nH]c3ccccc23)NC(=O)[C@@H]2CCCN2C(=O)[C@H](CC(C)C)NC(=O)[C@H](C)NC(=O)[C@@H](NC(C)=O)CSSC[C@@H](C(N)=O)NC(=O)[C@@H]2CCCN2C(=O)[C@H](CC(C)C)NC(=O)CNC1=O) [Compound 79 (Ac-CALPWNLQRIGLPC-NH2)] , thanks.
> 50 µM
